EC50 (read off the curve) values by entry
target: T1, GST-human NOGO-A56 (human); assay: reverse format ELISA: antibody captured on anti-human IgG, GST-Nogo-A 5+6 detected with anti-GST-HRP; the x axis is the antibody concentration
T1 construct: Expressed in E. coli BL21 from pGEX-6P1 and purified on glutathione-sepharose; the GST tag is part of the protein in the assays; also called GST-Nogo-A 5+6; GST Nogo-A 5 + 6
T1 sequence (chain, as listed by the source limits assumed): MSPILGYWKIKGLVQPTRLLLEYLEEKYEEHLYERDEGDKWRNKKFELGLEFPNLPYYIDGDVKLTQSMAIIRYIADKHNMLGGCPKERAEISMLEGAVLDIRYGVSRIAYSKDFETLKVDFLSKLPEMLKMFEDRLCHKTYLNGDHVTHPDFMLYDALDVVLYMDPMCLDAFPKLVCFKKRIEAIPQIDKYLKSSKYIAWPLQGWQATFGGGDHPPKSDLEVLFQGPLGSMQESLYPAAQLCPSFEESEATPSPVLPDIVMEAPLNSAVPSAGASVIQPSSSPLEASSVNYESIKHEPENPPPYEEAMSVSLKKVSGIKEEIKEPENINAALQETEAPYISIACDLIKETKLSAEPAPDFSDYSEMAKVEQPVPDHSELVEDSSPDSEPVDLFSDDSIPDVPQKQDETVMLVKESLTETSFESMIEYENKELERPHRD

Solved cases below.
>  <Binder>
H27L16 (antibody, human IgG1, kappa, V domains shown, IgG1 (L235A, G237A) / kappa; CAMPATH-1H signal (1-19) left out; also called H27FL L16FL) VH: QVQLVQSGAEVKKPGASVKVSCKASGYTFTSYWMHWVKQRPGQGLEWIGNINPSNGGTNYNEKFKSKATLTVDKSTSTAYMELSSLRSEDTAVYYCELMQGYWGQGTLVTVSS VL: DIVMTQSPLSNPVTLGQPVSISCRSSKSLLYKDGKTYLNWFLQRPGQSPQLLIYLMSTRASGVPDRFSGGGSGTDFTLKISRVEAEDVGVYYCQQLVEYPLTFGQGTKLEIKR

>  <Reported Value>
~0.1 µg/mL

$$$$
>  <Binder>
HcLc (chimera of 2A10: murine 2A10 VH and VL with human IgG constant regions) (antibody, V domains shown, also called chimeric antibody; chimeric form of the parental antibody) VH: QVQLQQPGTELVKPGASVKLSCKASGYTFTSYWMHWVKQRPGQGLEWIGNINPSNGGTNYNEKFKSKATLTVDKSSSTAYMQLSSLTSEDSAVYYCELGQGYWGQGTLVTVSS VL: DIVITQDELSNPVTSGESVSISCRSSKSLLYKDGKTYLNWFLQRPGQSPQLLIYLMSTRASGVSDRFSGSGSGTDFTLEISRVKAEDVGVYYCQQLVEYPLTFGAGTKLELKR

>  <Reported Value>
~0.1 µg/mL

$$$$
>  <Binder>
H28L13 (antibody, human IgG1, kappa, V domains shown, IgG1 (L235A, G237A) / kappa; CAMPATH-1H signal (1-19) left out; also called H28FL L13FL) VH: QVQLVQSGAEVKKPGASVKVSCKASGYTFTSYWMHWVRQAPGQGLEWIGNINPSNGGTNYNEKFKSKATMTRDTSTSTAYMELSSLRSEDTAVYYCELMQGYWGQGTLVTVSS VL: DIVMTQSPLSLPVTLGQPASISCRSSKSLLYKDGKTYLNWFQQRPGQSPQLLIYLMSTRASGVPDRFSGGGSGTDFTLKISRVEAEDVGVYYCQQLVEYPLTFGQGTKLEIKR

>  <Reported Value>
~0.06 µg/mL

$$$$

Next, consider the following binder.
// query EC50 (read off the curve) value for entry H20L16 (antibody, human IgG1, kappa, V domains shown, IgG1 (L235A, G237A) / kappa; CAMPATH-1H signal (1-19) left out) VH: QVQLVQSGAEVKKPGASVKVSCKASGYTFTSYWMHWVRQAPGQGLEWIGNINPSNGGTNYNEKFKSKATMTRDTSTSTAYMELSSLRSEDTAVYYCELGQGYWGQGTLVTVSS VL: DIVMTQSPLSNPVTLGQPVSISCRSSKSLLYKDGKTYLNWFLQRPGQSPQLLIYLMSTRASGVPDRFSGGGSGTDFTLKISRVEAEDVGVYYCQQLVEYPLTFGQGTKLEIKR
~0.08 µg/mL
